Values from patent US20140243292A1

Molecular target: human NCX1 (Homo sapiens, UniProt P32418)
Construct: expressed in transfected cells
Experiment: NCX1 inhibition, reverse mode (Ca2+ influx into cells), FLIPR Fluo-4 assay
Format: cell-based
Conditions: inhibition of NCX1 in reverse mode (Ca2+ influx into cells); read-out: NCX1rv IC50
Counter-ions that a name gives are not always drawn.
Attribute Measured: pIC50
Please express pIC50 as -log10 of the molar concentration.

Record NCc1cnc(Oc2ccc3c(c2)CCC(c2ccccc2)O3)s1 (centres unmarked) has human NCX1 (Homo sapiens, UniProt P32418) pIC50 equal to 7.00

Record `CC[C@H](C)[C@@H](CO)NC(=O)c1cnc(Oc2ccc3c(c2)CC[C@@H](c2ccccc2)O3)s1` has human NCX1 (Homo sapiens, UniProt P32418) pIC50 equal to 6.40

Record `O=C(NCCN1CCNC1=O)c1csc(Oc2ccc3c(c2)CC[C@@H](c2ccccc2)O3)n1` has human NCX1 (Homo sapiens, UniProt P32418) pIC50 equal to 6.68

Record CCn1nccc1CNC(=O)c1cnc(Oc2ccc3c(c2)CCC(c2ccccc2)O3)s1 (centres unmarked) has human NCX1 (Homo sapiens, UniProt P32418) pIC50 equal to 6.40

Record Cc1ccc(F)cc1C1CCc2cc(Oc3ncc(C(=O)N4CC[C@@H](O)C4)s3)ccc2O1 (some centres unmarked) has human NCX1 (Homo sapiens, UniProt P32418) pIC50 equal to 6.27

Record O=C(NCc1cnc(Oc2ccc3c(c2)CCC(c2ccccc2)O3)s1)c1ccnc(Cl)c1 (centres unmarked) has human NCX1 (Homo sapiens, UniProt P32418) pIC50 equal to 6.10

Record Nc1cc(CNC(=O)c2cnc(Oc3ccc4c(c3)CCC(c3cccc(F)c3)O4)s2)ccn1 (centres unmarked) has human NCX1 (Homo sapiens, UniProt P32418) pIC50 equal to 6.70

Record CN[C@H]1CN(C(=O)c2cnc(Oc3ccc4c(c3)CC[C@@H](c3ccccc3)O4)s2)CC[C@H]1C [compound 285, hydrochloride] has human NCX1 (Homo sapiens, UniProt P32418) pIC50 equal to 6.05

* * *

Would you mind telling me the reported pIC50 of each entry?
Molecular target: human NCX1 (Homo sapiens)
Construct: expressed in transfected cells
Assay: NCX1 inhibition, reverse mode (Ca2+ influx into cells), FLIPR Fluo-4 assay
Type: cell-based
Settings: inhibition of NCX1 in reverse mode (Ca2+ influx into cells); read-out: NCX1rv IC50
Where a name gives a salt, the structure may show the parent alone.
Please express pIC50 as -log10 of the molar concentration.

// recorded pIC50 for COC(=O)CNC(=O)c1cnc(Oc2ccc3c(c2)CCC(c2cccnc2)O3)s1 (centres unmarked) : 5.92

// recorded pIC50 for `O=C(N[C@H](CO)c1ccccc1)c1cnc(Oc2ccc3c(c2)CC[C@@H](c2ccccc2)O3)s1` : 6.52

// recorded pIC50 for Cc1nccc(CNC(=O)c2cnc(Oc3ccc4c(c3)CCC(c3cccc(F)c3)O4)s2)n1 (centres unmarked) [compound 56, hydrochloride] : 6.70

// recorded pIC50 for O=C(CCn1cccn1)NCc1cnc(Oc2ccc3c(c2)CCC(c2ccccc2)O3)s1 (centres unmarked) : 6.22

// recorded pIC50 for `O=C(NC1(C(=O)O)CC1)c1cnc(Oc2ccc3c(c2)CC[C@@H](c2ccccc2)O3)s1` : 6.00

// recorded pIC50 for COC(=O)[C@@H](NC(=O)c1cnc(Oc2ccc3c(c2)CCC(c2cccnc2)O3)s1)C(C)(C)C (some centres unmarked) : 5.51

// recorded pIC50 for CN(C)Cc1cnc(Oc2ccc3c(c2)CCC(c2ccccc2)O3)s1 (centres unmarked) : 6.40

// recorded pIC50 for N#Cc1ccc(CNCc2cnc(Oc3ccc4c(c3)CCC(c3ccccc3)O4)s2)cn1 (centres unmarked) : 6.70
